measurementTarget: S2 subunit of the SARS-CoV-2 spike protein, WA01/2020 strain (SARS-CoV-2, WA01/2020 strain, UniProt P0DTC2 686-1213)
experimentDescription: ELISA on S2 (S2 Binding EC50)
observable: EC50 (nM)
Numbers only, in nM.

Some entries whose results are on file:
>  <binder>
antibody 1814 (antibody, V domains shown) VH: QVQLQESGPGLVKPSETLSLTCSVSGGSINYYYWSWIRQTPGQGLEWIGFIYSSGTTNYNPSLKSRVTMSKDTAKKQFSLKLTSVTAADSAVYYCARHSRSCTNGVCQTYYYYALDVWGHGTTVTVSS VL: QSVLTQPPSVSGAPGQRVTISCTGSGSNIGSGYDVHWYQQLPGRAPKLLIYRNRNRPSGVPDRFSGSKSGTSASLAIAGLQSEDEGDYFCQSYDGRLGESAVFGGGTRLTVL

>  <endpointValue>
0.077

$$$$
>  <binder>
antibody 1823 (antibody, V domains shown) VH: EVQLVESGGGLVKPGGSLRLSCVASGFSFGLYTMNWVRQAPGKGLEWVSYISSSTSYKYYADSVKGRVSVSRDNAKNSLYLQLNGLRVEDTAVYYCARDGYCPNGICTYYGMDVWGQGTTVTVSA VL: EIVMTQSPATLSVSPGERATLSCRASQSVSSNLAWYQQKPGQAPRLLIYGASTRATGIPARFSGSGSGTEFTLTITGLQSEDFAVYYCQQYDKWPPAYSFGQGTKVEIK

>  <endpointValue>
0.614

$$$$

Pending binder:
EC50 measured on antibody 1859 (antibody, V domains shown) VH: EVQLVESGGGLVKPGGSLRLSCAASGFSFNTYTMNWVRQAPGKGLEWVSYISSSSSYKYYSDSVKGRFSVSRDNAKKSLYLQMNGLRAEDTAVYYCARDGYCPNGVCTYYGMDVWGQGTTVTVSL VL: EIVMTQSPATLSVSPGERATLSCRASQSVSSNLAWYQQKPGQAPRLLIYGASTRATGIPARFSGSGSGTEFTLTISGLQSEDFAVYFCQQYSKWPPAYTFGQGTKLEIK = 1.22

This collection of values is drawn from patent US20230382979A1.
